Values were extracted from PubChem BioAssay (NCI).

- Tested on: SN12C renal
- method: NCI tumour cell line growth inhibition, 48 h
measured property: TGI (µM)
Kindly provide the numeric value in µM only, without the unit symbol.

Answered examples (2):
molecule	unit label	TGI
CCCCC[C@H]1CCCCCCCCCC(=O)OC2C(O[C@@H]3OC(C)[C@H](OC(=O)[C@@H](C)CC)C(O[C@@H]4OC(C)[C@H](O)C(O)[C@@H]4O)[C@@H]3OC(=O)[C@H](C)CC)[C@H](OC3C(O)[C@@H](O)C(C)O[C@H]3O1)OC(CO)[C@H]2O (stereo partly drawn)	µM	31.3
CC1OC(=O)C(C(C)C)NC(=O)C(C(C)C)OC(=O)C(C(C)C)NC(=O)C(C)OC(=O)C(C(C)C)NC(=O)C(C(C)C)OC(=O)C(C(C)C)NC(=O)C(C)OC(=O)C(C(C)C)NC(=O)C(C(C)C)OC(=O)C(C(C)C)NC1=O (stereo not drawn)	µM	0.233

QUERY: Using the record for CC(C)(C)[Si](C)(C)OC[C@H](/C=C\CCCC(=O)O)NC1(c2ccccc2)c2ccccc2-c2ccccc21 , state its measured TGI.
RESULT: 31.6

QUERY: Using the record for O=c1[nH]c2ccc([N+](=O)[O-])cc2nc1/C=C(\O)c1ccccc1 , state its measured TGI.
RESULT: 59.5

QUERY: Using the record for CC1C2(C)OCC(C#N)(C(=N)O2)C1(C#N)C#N (stereo not drawn) , state its measured TGI.
RESULT: 29.1

QUERY: Using the record for O=S(=O)(O)SCCNCCCCCC1CCCCC1 , state its measured TGI.
RESULT: 11.3

QUERY: Using the record for O=C(C=C=Nc1ccccc1)C(=O)N=C=Cc1ccccc1 , state its measured TGI.
RESULT: 19.4

QUERY: Using the record for CCCCCCCCCCCCCCCCOCC(O)CO (stereo not drawn) , state its measured TGI.
RESULT: 36.3

QUERY: Using the record for COc1cccc2c1cc1c3c(cc4c(c32)OCO4)C(=O)N1 , state its measured TGI.
RESULT: 19.6
